B1: S100A14 (parent)
chain: KIANLGSCNDSKLEFRSFWELIGE

# Variants of: B1
# test summary: protein stability index of a GFP-peptide fusion (GPS, HEK-293T) (PSI 1-6); higher = more stable;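 note: lentivirally expressed fusions sorted by FACS into six bins by GFP to DsRed ratio, PSI derived from sequencing read proportions per bin multiplied by bin number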
# experimental parameters: c terminus: a fixed tail appended
Entry flag: criterion met if protein stability index reaches 2; criterion not met if it does not.

Below, 2 variants whose answers are already recorded.
- KIANLGSCNDSKLEFRSFWELMGE: criterion not met
- KEANLGSCNDSKLEFRSFWELIGE: criterion not met

**Q:** Threshold query (protein stability index >= 2) on `KIANLGICNDSKLEFRSFWELIGE`
**A:** criterion not met

**Q:** Threshold query (protein stability index >= 2) on `KIANLGSCKDSKLEFRSFWELIGE`
**A:** criterion met

**Q:** Threshold query (protein stability index >= 2) on `KIANLGSCNDSGLEFRSFWELIGE`
**A:** criterion not met
